# System: human lung cancer cell strain 95D
# assayRemarks: In vitro SRB tumor cell growth inhibition (GI50)
# Format: cell-based
# recordedConditions: Homo sapiens, 95-D, 48 h, 95D cells
testReadout: GI50 (µM)

// known answers, use as guide
Prompt: I have this compound here, C#Cc1ccc(C(=O)NC(=O)OCC)cc1[N+](=O)[O-] , and I need its recorded GI50.
Completion: 4.38

Prompt: I have this compound here, C#Cc1ccc(C(=O)NCC)cc1[N+](=O)[O-] [Compound I-17, N-ethyl-4-ethynyl-3-nitrobenzamide] , and I need its recorded GI50.
Completion: 10.3

Prompt: I have this compound here, C#Cc1ccc(C(=O)N2CCN(C)CC2)cc1[N+](=O)[O-] , and I need its recorded GI50.
Completion: 25.8

I = C#Cc1ccc(C(=O)N2CCNCC2)cc1[N+](=O)[O-].Cl [Compound I-30, hydrochloride]
II = C#Cc1ccc(C(=O)N(CC)CC)cc1[N+](=O)[O-] [Compound I-14, N,N-diethyl-4-ethynyl-3-nitrobenzamide]
III = NC(=O)c1ccc(I)c([N+](=O)[O-])c1 [BSI-201, 4-iodo-3-nitrobenzamide, reference compound]
IV = C#Cc1ccc(C(=O)NC(=O)OC)cc1[N+](=O)[O-]
Prompt: // ranking: key=GI50, reverse=True Thanks in advance for listing the labels in the requested order.
Completion: III, II, I, IV

----------
# Tested on: human colon cancer cell strain Colo205
# assayRemarks: In vitro SRB tumor cell growth inhibition (GI50)
# Format: cell-based
# recordedConditions: Colo 205 cells, 48 h
# Text: Human colon cancer cell strains (Colo205 and HCT-116), human breast cancer cell strains (MCF-7 and MDA-MB435), human lung cancer cell strains (A549, 95D and NCI460), human ovarian cancer cell strains (OVCAR-5, OVCAR-8, HO8910 and SKOV-3), human leukemia (HL-60 and K562), human prostate cancer (DU145 and BXPC-3), human uterine cancer (Hela), human pancreatic cancer (PANC-1), human hepatoma (HepG 2) were all obtained from ATCC. […]
testReadout: GI50 (µM)

Prompt: I have this compound here, C#Cc1ccc(C(=O)N2CCCC2)cc1[N+](=O)[O-] , and I need its recorded GI50.
Completion: 2.61

A = C#Cc1ccc(C(=O)NC(=O)OCC)cc1[N+](=O)[O-]
B = C#Cc1ccc(C(=O)N2CCN(C)CC2)cc1[N+](=O)[O-]
Prompt: Which is greater in GI50, the first item A or the second item B ? State the label of the item chosen.
Completion: B
(B: 10.9 µM, A: 4.32 µM)

A = C#Cc1ccc(C(=O)NC(=O)OCC(C)C)cc1[N+](=O)[O-]
B = NC(=O)c1ccc(I)c([N+](=O)[O-])c1 [BSI-201, 4-iodo-3-nitrobenzamide, reference compound]
Prompt: Which is greater in GI50, the first item A or the second item B ? State the label of the item chosen.
Completion: B
(B: 76 µM, A: 3.15 µM)

a = C#Cc1ccc(C(=O)N(CC)CC)cc1[N+](=O)[O-] [Compound I-14, N,N-diethyl-4-ethynyl-3-nitrobenzamide]
b = C#Cc1ccc(C(=O)NC(=O)OC)cc1[N+](=O)[O-]
Prompt: Which is greater in GI50, the first item a or the second item b ? State the label of the item chosen.
Completion: b
(b: 7.03 µM, a: 2.79 µM)

a = C#Cc1ccc(C(=O)NCC)cc1[N+](=O)[O-] [Compound I-17, N-ethyl-4-ethynyl-3-nitrobenzamide]
b = C#Cc1ccc(C(=O)N2CCCCC2)cc1[N+](=O)[O-]
Prompt: Decide: a or b , by lowest recorded GI50. State the label of the item chosen.
Completion: b
(b: 1.52 µM, a: 3.21 µM)

----------
# Tested on: human pancreatic cancer PANC-1
# assayRemarks: In vitro SRB tumor cell growth inhibition (GI50)
# Type: cell-based
# recordedConditions: Homo sapiens, PANC-1, 48 h, PANC-1 cells
testReadout: GI50 (µM)

// known answers, use as guide
Prompt: I have this molecule here, C#Cc1ccc(C(=O)N2CCCCC2)cc1[N+](=O)[O-] , and I need its recorded GI50.
Completion: 12.5

Prompt: I have this molecule here, C#Cc1ccc(C(N)=O)cc1[N+](=O)[O-] [Compound I-1, 4-ethynyl-3-nitrobenzamide] , and I need its recorded GI50.
Completion: 7.41

Prompt: I have this molecule here, C#Cc1ccc(C(=O)NC(=O)OC)cc1[N+](=O)[O-] , and I need its recorded GI50.
Completion: 13.7

A = C#Cc1ccc(C(=O)NCC)cc1[N+](=O)[O-] [Compound I-17, N-ethyl-4-ethynyl-3-nitrobenzamide]
B = C#Cc1ccc(C(=O)NC(=O)OCC)cc1[N+](=O)[O-]
C = C#Cc1ccc(C(=O)N(CC)CC)cc1[N+](=O)[O-] [Compound I-14, N,N-diethyl-4-ethynyl-3-nitrobenzamide]
D = C#Cc1ccc(C(=O)N2CCCC2)cc1[N+](=O)[O-]
Prompt: // ranking: key=GI50, reverse=True Thanks in advance for listing the labels in the requested order.
Completion: C, A, D, B

----------
# Tested on: human lung cancer cell strain A549
# assayRemarks: In vitro SRB tumor cell growth inhibition (GI50)
# Format: cell-based
# recordedConditions: A549 cells, 48 h
testReadout: GI50 (µM)

A = C#Cc1ccc(C(=O)N2CCCC2)cc1[N+](=O)[O-] [Compound I-20]
B = NC(=O)c1ccc(I)c([N+](=O)[O-])c1 [BSI-201, 4-iodo-3-nitrobenzamide, reference compound]
C = C#Cc1ccc(C(=O)N2CCNCC2)cc1[N+](=O)[O-] [Compound I-23]
D = C#Cc1ccc(C(=O)NC(=O)OC)cc1[N+](=O)[O-] [Compound I-2]
Prompt: Can you order these entries from above by GI50? Start with the largest number and work down. Thanks in advance for listing the labels in the requested order.
Completion: B, C, A, D

----------
# System: human lung cancer cell strain 95D
# assayRemarks: In vitro SRB tumor cell growth inhibition (GI50)
# Assay type: cell-based
# recordedConditions: Homo sapiens, 95-D, 48 h, 95D cells
testReadout: GI50 (µM)

Prompt: I have this compound here, C#Cc1ccc(C(N)=O)cc1[N+](=O)[O-] [Compound I-1, 4-ethynyl-3-nitrobenzamide] , and I need its recorded GI50.
Completion: 1.88

Prompt: I have this compound here, C#Cc1ccc(C(=O)N2CCCCC2)cc1[N+](=O)[O-] [Compound I-21] , and I need its recorded GI50.
Completion: 14.5

Prompt: I have this compound here, C#Cc1ccc(C(N)=O)cc1N=O [Compound I-28, 4-ethynyl-3-nitrosobenzamide] , and I need its recorded GI50.
Completion: 18.1

Prompt: I have this compound here, C#Cc1ccc(C(=O)N2CCCC2)cc1[N+](=O)[O-] [Compound I-20] , and I need its recorded GI50.
Completion: 15.1

----------
# System: human pancreatic cancer PANC-1
# assayRemarks: In vitro SRB tumor cell growth inhibition (GI50)
# Format: cell-based
# recordedConditions: Homo sapiens, PANC-1, 48 h, PANC-1 cells
testReadout: GI50 (µM)

Prompt: I have this compound here, C#Cc1ccc(C(=O)N2CCNCC2)cc1[N+](=O)[O-].Cl [Compound I-30, hydrochloride] , and I need its recorded GI50.
Completion: 18.1

Prompt: I have this compound here, NC(=O)c1ccc(I)c([N+](=O)[O-])c1 [BSI-201, 4-iodo-3-nitrobenzamide, reference compound] , and I need its recorded GI50.
Completion: 25.5

Prompt: I have this compound here, C#Cc1ccc(C(=O)N2CCN(C)CC2)cc1[N+](=O)[O-] , and I need its recorded GI50.
Completion: 24.3

----------
# System: human lung cancer cell strain A549
# assayRemarks: In vitro SRB tumor cell growth inhibition (GI50)
# Type: cell-based
# recordedConditions: A549 cells, 48 h
testReadout: GI50 (µM)

// known answers, use as guide
Prompt: I have this compound here, C#Cc1ccc(C(=O)N2CCCCC2)cc1[N+](=O)[O-] [Compound I-21] , and I need its recorded GI50.
Completion: 17.9

Prompt: I have this compound here, C#Cc1ccc(C(=O)N(CC)CC)cc1[N+](=O)[O-] [Compound I-14, N,N-diethyl-4-ethynyl-3-nitrobenzamide] , and I need its recorded GI50.
Completion: 17.6

Prompt: I have this compound here, C#Cc1ccc(C(=O)N2CCN(C)CC2)cc1[N+](=O)[O-] [Compound I-24] , and I need its recorded GI50.
Completion: 30.1

Prompt: I have this compound here, C#Cc1ccc(C(N)=O)cc1[N+](=O)[O-] [Compound I-1, 4-ethynyl-3-nitrobenzamide] , and I need its recorded GI50.
Completion: 4.56

a = C#Cc1ccc(C(=O)NCC)cc1[N+](=O)[O-] [Compound I-17, N-ethyl-4-ethynyl-3-nitrobenzamide]
b = C#Cc1ccc(C(=O)NC(=O)OCC)cc1[N+](=O)[O-] [Compound I-3]
c = CC#Cc1ccc(C(=O)NC)cc1[N+](=O)[O-] [Compound I-26, N-methyl-4-(1-propynyl)-3-nitrobenzamide]
Prompt: Order the records, beginning with the lowest GI50 and ending with the highest. Thanks in advance for listing the labels in the requested order.
Completion: a, b, c
